This listing pairs compounds with measured HTS binding score.
- targetSystem: T. cruzi CYP51 (Trypanosoma cruzi)
- Construct: had the first 21 residues upstream of K22 replaced with the fragment MAKKKKK; His6 (C); made in house
- Sequence (Q7Z1V1 15-481, looked up, natural form): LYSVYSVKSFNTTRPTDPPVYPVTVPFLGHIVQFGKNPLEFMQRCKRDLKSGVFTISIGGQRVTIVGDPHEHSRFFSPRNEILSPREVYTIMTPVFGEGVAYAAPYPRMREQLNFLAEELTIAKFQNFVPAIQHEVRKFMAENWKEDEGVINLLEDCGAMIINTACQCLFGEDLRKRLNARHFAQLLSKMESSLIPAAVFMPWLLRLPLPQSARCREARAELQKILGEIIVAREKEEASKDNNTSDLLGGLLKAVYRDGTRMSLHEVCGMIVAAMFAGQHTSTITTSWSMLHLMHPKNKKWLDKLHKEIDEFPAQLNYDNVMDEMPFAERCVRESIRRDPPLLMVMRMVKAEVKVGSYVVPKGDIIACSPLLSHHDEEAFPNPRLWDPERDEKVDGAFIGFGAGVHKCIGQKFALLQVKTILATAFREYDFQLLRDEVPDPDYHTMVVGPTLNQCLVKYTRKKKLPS
- protocolDescription: HTS spectral-mode binding screen, type II difference spectra scored 0-5
- assaySetup: spectral mode, four serial dilutions 2 µM to 12.5 µM, 2 µM CYP51
Enter the number alone.

compound | recordedMeasurement
CCO/C(O)=C1/C(C)=NC2=C(C(=O)CC(c3ccccc3)C2)C1c1cccnc1 (stereo not shown) [Compound 136] | 4
O=C(CSc1nc(-c2ccc(F)cc2)cc(C(F)(F)F)n1)NCc1ccncc1 [Compound 155] | 4

Quote T. cruzi CYP51 (Trypanosoma cruzi) HTS binding score for entry COc1ccc(-c2nc3n(n2)C(c2cccnc2)C2=C(O)CCCC2=N3)cc1 (stereo not shown) [Compound 122] . 5

Give reported HTS binding score for COC(=O)c1sccc1NC(=O)CSCCc1ccncc1 [Compound 96] (T. cruzi CYP51 (Trypanosoma cruzi)) 4

Recall the reported HTS binding score of Cc1ccc(Sc2c(C(=O)NCc3cccnc3)[nH]c3ccccc23)cc1 [Compound 123] when tested on T. cruzi CYP51 (Trypanosoma cruzi). 4

Enter recorded HTS binding score with T. cruzi CYP51 (Trypanosoma cruzi) for COc1ccc(CNc2nc(-c3cccnc3)nn2S(=O)(=O)c2ccccc2)cc1 [Compound 154] here. 4

State HTS binding score (T. cruzi CYP51 (Trypanosoma cruzi)) of COC(=O)c1ccc(-c2ccncc2)s1 [Compound 21] . 4

Given COc1ccc(NC(=O)Nc2ccc(Cc3ccncc3)cc2)cc1 [Compound 91] , report its HTS binding score on T. cruzi CYP51 (Trypanosoma cruzi). 5

# return HTS binding score for N#C/C(=C\C=C\c1ccccc1)C(=O)NCc1cccnc1 [Compound 49] , test system: T. cruzi CYP51 (Trypanosoma cruzi) 3

Find the measured HTS binding score of CC1(C)CC(=O)C2=C(C1)c1c(ccc3ccccc13)NC2c1cccnc1 (stereo not shown) [Compound 114] with T. cruzi CYP51 (Trypanosoma cruzi) as test system. 5

Look up and report HTS binding score, with T. cruzi CYP51 (Trypanosoma cruzi) as system, for Cc1coc(NC(=O)c2sc3nc(-c4ccncc4)cc(C(F)(F)F)c3c2N)n1 [Compound 153] 4

Quote T. cruzi CYP51 (Trypanosoma cruzi) HTS binding score for entry CN(C)C(C/N=C(\S)NCCc1ccccc1)c1cccnc1 (stereo not shown) [Compound 46] . 1

Please indicate recorded HTS binding score of CCCCNC(=O)c1cc(-c2ccncc2)nc2ccccc12 [Compound 50] measured with T. cruzi CYP51 (Trypanosoma cruzi). 5

System T. cruzi CYP51 (Trypanosoma cruzi). Read-out HTS binding score. Item COc1cccc(C2C(C(=O)Nc3cccnc3)=C(C)Nc3nc(-c4cccs4)nn32)c1 (stereo not shown) [Compound 169] . Report value. 4

Would you please give the reported HTS binding score of Cc1ccc(C)c(CN2CCCCC2c2cccnc2)c1 (stereo not shown) [Compound 48] with T. cruzi CYP51 (Trypanosoma cruzi)? 4

Give HTS binding score for this entry on T. cruzi CYP51 (Trypanosoma cruzi): O=C(NCc1ccncc1)C(Sc1ccccc1)c1ccccc1 (stereo not shown) [Compound 93] 4

Given COCc1cc(C)nc2c1C(=O)NC(c1cccnc1)N2Cc1ccccc1 (stereo not shown) [Compound 124] , report its HTS binding score on T. cruzi CYP51 (Trypanosoma cruzi). 4

Provide the reported HTS binding score (system: T. cruzi CYP51 (Trypanosoma cruzi)) for C=CCn1c(=O)c(C(=O)NCc2ccncc2)c(O)c2ccccc21 [Compound 94] 4

Write HTS binding score of CCN(Cc1ccncc1)/C(S)=N/CCc1ccccc1 [Compound 59] ; system used: T. cruzi CYP51 (Trypanosoma cruzi) 5

The reported numbers originate from paper PMC3409115.
